Target: T1, human β-factor XIIa (human), P00748
T1 chain 1: NGPLSCGQR
T1 chain 2: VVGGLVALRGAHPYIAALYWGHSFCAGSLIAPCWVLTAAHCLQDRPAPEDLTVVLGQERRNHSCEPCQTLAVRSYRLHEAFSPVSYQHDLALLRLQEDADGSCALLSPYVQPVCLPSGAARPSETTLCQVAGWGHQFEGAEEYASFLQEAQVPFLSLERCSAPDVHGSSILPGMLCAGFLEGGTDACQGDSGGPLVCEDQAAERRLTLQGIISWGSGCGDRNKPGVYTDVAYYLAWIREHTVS
Test: SPR (Biacore T200), biotinylated human β-FXIIa captured on chip, peptide as analyte, 1:1 model
pKd: −log10 of the molar value.
Response key: true means pKd >= 8; false means pKd < 8.

(Q) API: above_or_equal(metric=pKd, cutoff=8) for item DGGICPRIGRLCRRDSDCPGACICRATRFCGSGY (modifications not checked) [MCoFx1 acyclic]
(A) true

(Q) Is pKd at least 8? Consider DGGVCPRVGWRCRRDSDCPGACICYPTKWCGSGS (modifications not checked) [MCoFx4 acyclic]
(A) false

(Q) Does the reported pKd for DGGRCCGGYLVCRRDSDCPGACICVFKKHCGSGS (modifications not checked) [MCoFx5 cyclic] fall at or above the 8 mark?
(A) false

(Q) Could you please find out whether DGGICPRILVYCRRDSDCPGACICIRRTYCGSGS (modifications not checked) [MCoFx2 acyclic] has pKd that meets 8 or exceeds it?
(A) false

(Q) Determine whether this binder has pKd no lower than 8: DGGRCPRLLRWCRRDSDCPGACICARGGLCGSGS (modifications not checked) [MCoFx3 cyclic]
(A) false

(Q) Please check the record DGGICPRIGRLCRRDSDCPGACICRATRFCGSGY (modifications not checked) [MCoFx1 cyclic] and state if its pKd is at or above 8.
(A) true
